Target: Biotinylated CD33 protein (UniProt P20138)
Sequence (P20138 18-259 limits assumed): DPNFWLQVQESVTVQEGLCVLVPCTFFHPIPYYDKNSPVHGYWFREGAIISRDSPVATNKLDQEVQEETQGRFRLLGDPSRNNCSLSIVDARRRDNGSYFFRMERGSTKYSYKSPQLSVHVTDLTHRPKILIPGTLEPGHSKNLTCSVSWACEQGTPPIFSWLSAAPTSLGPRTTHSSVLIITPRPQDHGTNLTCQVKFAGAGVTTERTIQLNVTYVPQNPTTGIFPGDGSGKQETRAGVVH
Test: Octet competition on biotinylated CD33; competitor 413

binder	Octet signal
sdCD33_8 (VHH, sdAb from a naive llama phage library; also called 424; sdAb424) VHH: QVQLVESGGGLVQAGGSLRLSCAASGGAFSTYTMGWFRQAPGKEREFVAAIAWTGTHTYYSDSVKGRFTISRDNDKNTVFLQMNSLKPEDTAVYYCAQASSRYRAVTDSLSENHWGPGTQVTVST	0.37
sdCD33_2 (VHH) VHH: QVQLVQPGGSLRLFCVASEEFFSIYAMGWYRQAPGKQHEMVARFTRDGKITYADSAKGRFTITRDAKNTLNLQMNGLIPEDTAVYYCNINHYWGQGTQVTVSS	0.623
sdCD33_9 (VHH, sdAb from a naive llama phage library; also called 426; sdAb426) VHH: QVKLEESGGGLVRAGGSLRLSCAASGGTFSTYAMAWFRQAPGKEREFVAAITWGGGSTYYEDSVKGRFTISRDNAKNTGVLQMNNLDVDDTAVYYCYAFGRSRAGDANGDYWGQGTQVTVSS	0.257
sdCD33_10 (VHH) VHH: QVQLVETGGGLVRAGGSLRLSCAASGRTADIYNIGWFRQAPGKEREFVAAITWIGRTPYYADAVKGRFAFSTDSAKNTVSLQMDNLKPEDTGVYYCNAAHYLEGNTDYYWGQGTQVTVSS	0.865
sdCD33_6 (VHH, sdAb from a naive llama phage library; also called 416; sdAb416) VHH: EVQLVESGGGLVQPRGSLRLSCVVSGSMSSIYSMSWYRQPPGKQRELVAHITTTGTTNYIDSVKGRFTISIDNDINVIYLQMNTLKPEDTAVYYCNAGLKAGPGPRLDYWGLGTQVTVSS	0.376
sdCD33_3 (VHH) VHH: DVQLVESGGGLVQPGGSLRLSCSVSGNIDRFYAMGWYRQAPGKQRELVAQLTNNEITTYGDSVEGQFSISGDFDANTVYLQMDSLKPEDTAVYYCHAHVTTTRWSQDYYWGQGTRVTVSS	0.0204
sdCD33_7 (VHH, sdAb from a naive llama phage library; also called 420; sdAb420) VHH: EVQLVESGGGLVQPGGSLRLSCVASGFTFKDYGMTWVRQAPGKALEWVSDINSAGDGIYYSDSVKGRFTISRDDSKGTLYLQMNSLTPEDTAIYYCAAERQRAGDVKRSLAPITAHIWGQGTQVTVSS	0.2
sdCD33_11 (VHH, sdAb from a naive llama phage library; also called 430; sdAb430) VHH: AVQLVESGGGLVQAGGSLRLSCAASGDTFANYAMGWFRQAPGKEREFVAAISWSDSSTHYADSVKGRFTIPRDNAKNAVYLQMDQLKPEDMAVYYCYAYIRGVGEVRYVDYWGQGTQVTVSS	-0.108
sdCD33_4 (VHH) VHH: QVKLEESGGGSVQAGESLRLSCTASGITFRDYDIDWYRQAPGKEREWLATITPSGTTHYPDSVKGRATISRDSAKNTVYLQMNSLKPEDTARYECNTLAYWGSGTQVTVSS	-0.0267
